In this section, each of the compounds is paired with its reported composite z-score.
Target: Streptavidin (Streptomyces avidinii) (UniProt P22629)
Sequence (P22629 whole entry, looked up): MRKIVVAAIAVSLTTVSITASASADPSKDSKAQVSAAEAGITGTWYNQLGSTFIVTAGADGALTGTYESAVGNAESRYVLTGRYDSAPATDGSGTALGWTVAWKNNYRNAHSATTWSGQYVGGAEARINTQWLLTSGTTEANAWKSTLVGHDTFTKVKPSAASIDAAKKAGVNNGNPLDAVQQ
Assay: streptavidin binders on small-molecule microarray, primary screen, artefact control for SMM compound annotation, biophysical, 635/667 nm fluorescence (AID 1147);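 further: signal reflects streptavidin binding to arrayed compounds as a control protein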
Details: streptavidin binding, higher = more signal
READOUT LABEL: composite z-score

[N-]=[N+]=NCc1ccccc1C[C@]1(C(=O)NCC(O)CO)N=C(c2ccc(OCCCO)cc2)O[C@H]1c1ccccc1CN=[N+]=[N-] (some centres not stated) :: 0.661
CCOC(=O)C[C@H]1[C@H](OC(=O)c2ccc(-c3ccccc3)cc2)[C@@H](NC(=O)c2ccc3ccccc3c2)c2cc(OCCCO)ccc2N1C(=O)c1ccc2ccccc2n1 :: 1.02
CN(C)CCCNC(=O)[C@@]1(C)c2ccccc2C(=O)N(Cc2cc(C(F)(F)F)cc(C(F)(F)F)c2)[C@H]1c1ccc(CO)cc1 :: -0.95
CCCCN1CC=CC23O[C@@H]4C=CCOC(=O)[C@@H]4[C@H]2C(=O)N(C(C)CO)[C@@H]3C1=O (some centres not stated) :: -0.78
C=C(CCCC)C(=O)CC[C@@H](OC(=O)c1ccccc1-c1ccccc1C(=O)O)c1cccc(OCCO)c1 :: -0.6
CCCC[C@@H]1C[C@H]1[C@@H](NC(=O)c1cccnc1)c1ccc(-c2ccccc2)cc1 :: -1.02
COCCCNC(=O)[C@@]1(Sc2ccc(C)cc2)CC(=O)N(Cc2cc(C(F)(F)F)cc(C(F)(F)F)c2)[C@@H]1c1ccc(CO)cc1 :: 0.072

====

Tested on: Wnt5a (protein binding on small-molecule microarray)
Test: Wnt5a binders on small-molecule microarray, primary screen, biophysical, 635/667 nm fluorescence (AID 1142);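 further: fluorescence read at 667 nm with signal to noise per printed feature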
Settings: 635 nm fluorescence, higher = more signal
READOUT LABEL: composite z-score

CC(C)CCC[C@@H](C)[C@H]1CC[C@@]2(C)C3=C(CC[C@]12C)[C@@]1(C)CC[C@H](OC(=O)c2ccc(Br)cc2)C(C)(C)C1CC3 (stereo partly drawn) :: 0.119
C=C(/C(=C/C[C@@H](OC(=O)c1ccncc1)c1ccc(OCCO)cc1)c1cc(C(=O)OC)ccc1OC)C(C)C :: 0.308
C=C(CCCC)C(=O)CC[C@@H](OC(=O)c1cccnc1)c1ccccc1OCCO :: 0.047
C=CCOC(=O)[C@H]1[C@@H]2C(=O)O[C@@H](c3ccccc3)[C@@H](c3ccccc3)N2[C@@H](c2ccc(OCCOC(=O)[C@H]3C[C@H]4C(=O)N[C@@H](CCCC[N+](C)(C)C)C(=O)N4[C@H]3c3cccc(OCCO)c3)cc2)[C@]12C(=O)Nc1ccc(I)cc12 :: 0.419
COC(=O)c1c(CC[C@@H](CO)NC(=O)N[C@H](Cn2cc(-c3ccccc3C)nn2)C(C)C)oc(C(C)=O)c1C(=O)OC :: -0.338
O=C1OC[C@@H](c2ccccc2)N2CC(/C=C/c3ccccc3)=CC12 (stereo partly drawn) :: -0.82
CN(C)C(=O)[C@]1(CCC(=O)OC(C)(C)C)N=C(c2ccc(OCCCO)cc2)O[C@@H]1c1ccccc1 :: 0.677
COc1cc2c(cc1OC)CN(C(=O)[C@H]1[C@@H]3C(=O)O[C@@H](c4ccccc4)[C@@H](c4ccccc4)N3[C@@H](c3ccc(OCCO)cc3)[C@]13C(=O)Nc1ccc(C#CC4(O)CCCCCC4)cc13)CC2 :: 0.928
COCCOC(=O)N1C(=O)[C@@]2(c3ccccc31)[C@H](C(=O)N1CCN(c3ncccn3)CC1)[C@H]1C(=O)O[C@H](c3ccccc3)[C@H](c3ccccc3)N1[C@@H]2c1ccc(OCCO)cc1 :: 0.561
O=C1OCCC=C[C@H]2OC34C=CCN(c5ccc(Cl)cc5)C(=O)[C@H]3N(CCCCCO)C(=O)[C@@H]4C12 (stereo partly drawn) :: -0.244
CC(C)(C)OC(=O)CC[C@@]1(C(=O)O)N=C(c2ccc(OCCCO)cc2)O[C@@H]1c1ccccc1CN=[N+]=[N-] :: 0.48
COc1ccc([Si](C)(C)[C@H]2[C@H](CC(=O)N3Cc4ccccc4C[C@H]3CO)O[C@@]3(C(=O)N(Cc4cccc(N5CCCCC5=O)c4)c4ccccc43)[C@@H]2C)cc1 :: 0.329
CC=CC(O)C1C=CC2C(=O)N(C)C(=O)C2N1N1CCCCC1 (stereo not drawn) :: 0.251
NC(=O)N1C(=O)C2C(C1=O)C1C=C(CCCO)C2C(c2cccs2)N1Cc1cc2c(cc1Br)OCO2 (stereo not drawn) :: -0.25
Cc1ccc(S[C@]2(C(=O)NC(C)C)CC(=O)N(Cc3ccccc3C(F)(F)F)[C@@H]2c2ccc(CO)cc2I)cc1 :: -0.38
CC(C)N1CC=CC23O[C@@H]4C=CCCOC(=O)C4[C@H]2C(=O)N(CCO)[C@@H]3C1=O (stereo partly drawn) :: -0.496
CC(C)N1C(=O)[C@@]2(c3ccc([N+](=O)[O-])cc3)CC(=O)N(C3CCCCC3)[C@@H]2c2ccc(CO)cc21 :: -0.0311
C=C1C2CC3C(=C4C(CO[C@@H]4[C@H]4CCCN4S(=O)(=O)c4ccccc4[N+](=O)[O-])C4C(=O)N(C)C(=O)C34)CC2C(=O)N1C (stereo partly drawn) :: -0.0541
C[n+]1ccc(CCCO)cc1 :: 0.749
O=C1O[C@@H](c2ccccc2)[C@@H](c2ccccc2)N2[C@@H](c3ccc(O)cc3)[C@]3(C(=O)Nc4ccc(C#CCCO)cc43)[C@@H](C(=O)Nc3nc4ccccc4s3)[C@H]12 :: 0.106
COc1ccc(C(O)C2C=CC3C(=O)N(Cc4ccccc4)C(=O)C3N2n2cnnc2)c2ccccc12 (stereo not drawn) :: -0.795
Cc1ccc(F)cc1S(=O)(=O)N[C@@H]1CCN(Cc2ccc(Oc3ccccc3)cc2)C1 :: -0.123
COc1ccc([Si](C)(C)[C@H]2[C@H](CCn3cc(CCO)nn3)O[C@@]3(C(=O)N(Cc4ccc(N5C(=O)c6cccc7cccc5c67)cc4)c4ccccc43)[C@@H]2C)cc1 :: 0.426
COC(=O)[C@H](Cc1ccccc1)N1CC(/C=C/C2CC2)=C[C@@H]1[C@@H](O)Cc1ccccc1 :: 0.624
C=C(/C=C/CNS(=O)(=O)c1ccc(C)cc1)[C@H](O)[C@H]1CCCN1S(=O)(=O)c1ccccc1[N+](=O)[O-] :: 0.118
O=C1O[C@@H](c2ccccc2)[C@@H](c2ccccc2)N2[C@@H](c3ccccc3OCCO)[C@]3(C(=O)Nc4ccc(C#CC5=CCCCC5)cc43)[C@@H](C(=O)NC[C@H](O)c3ccccc3)[C@H]12 :: 0.361
COC(=O)C[C@H]1O[C@]2(C(=O)N(C)c3ccccc32)[C@@H](C)[C@@H]1[Si](C)(C)c1ccc(C)cc1 :: 0.139
CC=CC(O)C1C=CC2C(=O)N(C)C(=O)C2N1Nc1ccc([N+](=O)[O-])cc1[N+](=O)[O-] (stereo not drawn) :: -0.449
